Cited source: patent US20250049896A1

target: T1, Hmm-hTFRC (REGN2431), monomeric human transferrin receptor ectodomain with N-terminal hexahistidine-myc-myc … (human, UniProt P02786 89-760); experiment: blocking ELISA, supernatant; Hmm-hTFRC binding to immobilized human holo-Tf
T1 construct: also called hmm.hTfR(C89-F763); His-myc-myc-hTFRC ecto
T1 sequence (P02786 other isoform, or with tags, fused parts or gaps): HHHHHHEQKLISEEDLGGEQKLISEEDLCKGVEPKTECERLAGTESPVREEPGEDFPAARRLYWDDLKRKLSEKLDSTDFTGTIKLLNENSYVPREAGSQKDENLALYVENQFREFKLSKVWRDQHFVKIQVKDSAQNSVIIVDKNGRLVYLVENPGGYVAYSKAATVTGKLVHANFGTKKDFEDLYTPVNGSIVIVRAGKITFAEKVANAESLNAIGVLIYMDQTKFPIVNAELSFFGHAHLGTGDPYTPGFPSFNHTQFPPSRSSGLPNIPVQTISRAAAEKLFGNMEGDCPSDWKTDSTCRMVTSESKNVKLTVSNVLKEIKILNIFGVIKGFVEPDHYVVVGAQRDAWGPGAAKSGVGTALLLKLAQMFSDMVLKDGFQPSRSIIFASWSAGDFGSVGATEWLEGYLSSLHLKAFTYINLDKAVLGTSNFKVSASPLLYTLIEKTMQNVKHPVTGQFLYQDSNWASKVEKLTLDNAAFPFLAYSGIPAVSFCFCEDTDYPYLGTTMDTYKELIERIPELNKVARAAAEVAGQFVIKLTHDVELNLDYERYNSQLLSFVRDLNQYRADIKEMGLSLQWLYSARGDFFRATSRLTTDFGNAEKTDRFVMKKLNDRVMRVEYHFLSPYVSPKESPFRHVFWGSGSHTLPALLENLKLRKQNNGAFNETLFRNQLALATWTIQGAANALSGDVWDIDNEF
readout: % Blocking (%)
Output spec: scalar in %, unitless text.

69331 Fab (Fab, V domains shown, CHO supernatant) VH: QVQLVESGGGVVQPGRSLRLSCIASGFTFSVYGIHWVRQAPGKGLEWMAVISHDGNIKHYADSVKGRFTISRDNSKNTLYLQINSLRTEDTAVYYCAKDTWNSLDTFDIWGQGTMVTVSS VL: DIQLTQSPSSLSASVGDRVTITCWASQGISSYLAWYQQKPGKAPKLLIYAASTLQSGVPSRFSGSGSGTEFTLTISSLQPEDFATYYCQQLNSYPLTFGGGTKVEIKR
9

Note: attention shifts to another entry.
Item: 12812B Fab (Fab, V domains shown, CHO supernatant) VH: QVQLVQSGAEVKKPGSSVRVSCKASRGTFSSYAISWVRQAPGQGLEWMGGIIPIFGTANYAQKFLARVTITADESTSTAYMELSSLRSEDTAVYYCAREKGWNYFDYWGQGTLVTVSS VL: DIQMTQSPPSVSASVGDRVTITCRASQGISSWLAWYQQKPGKAPKLLIYAASSLQSGVPSRFSGSGSGTDFTLTISSLQPEDFATYYCQQANSFPRTFGQGTKVEIKR | % Blocking: 14
